# experimental_details: Fraction unbound in Wistar rat liver microsomes incubated for 6 hrs by LC-MS/MS based equilibrium dialysis method
# Type: ADME
Classification scheme (fraction unbound at 6 h): low: < 0.03; medium: ≥ 0.03 and < 0.2; high: ≥ 0.2

Example entries and their recorded answers appear below.
CCc1cc(-c2noc(-c3cc(C)cc(CN(C)CC)c3)n2)cc(C)c1OC[C@@H](O)CNC(=O)CO	high
CCCCN(C)Cc1cc(C)cc(-c2nc(-c3cc(C)c(OC[C@@H](O)CNC(=O)CO)c(CC)c3)no2)c1	low
CCc1cc(-c2noc(-c3cc(C)cc(CN(C)CC(C)C)c3)n2)cc(C)c1OC[C@@H](O)CNC(=O)CO	low
CCc1cc(-c2noc(-c3cc(C)nc(CN(C)CC(C)C)c3)n2)cc(C)c1OC[C@@H](O)CNC(=O)CO	medium
CCc1cc(-c2nc(-c3cc(C)c(OC[C@@H](O)CNC(=O)CO)c(CC)c3)no2)ccc1CN(C)C	medium

Which class holds `CCc1cc(-c2noc(-c3cc(C)cc(CN(C)C)c3)n2)cc(C)c1OC[C@@H](O)CNC(=O)CO` ?
high

Let us now turn to `CCc1cc(-c2noc(-c3cc(C)c(CN(C)CC(C)C)s3)n2)cc(C)c1OC[C@@H](O)CNC(=O)CO`
low

Let us now turn to `CCc1cc(-c2noc(-c3ccc(CN(C)CC(C)C)c(C)c3)n2)cc(C)c1OC[C@@H](O)CNC(=O)CO`
low

Let us now turn to `CCc1cc(-c2noc(-c3cc(C)c(CN(C)C)s3)n2)cc(C)c1OC[C@@H](O)CNC(=O)CO`
medium

* * *

# experimental_details: Plasma concentration in Wistar rat at 10 mg/kg administered as single dose through oral gavage after 96 hrs by LC-MS/MS analysis
# Type: ADME, organism-based
value_type: concentration at 96 h (ng/mL)
Response body: numeric value in ng/mL, unit text excluded.

Item `CCc1cc(-c2noc(-c3cc(C)c(CN(C)CC(C)C)s3)n2)cc(C)c1OC[C@@H](O)CNC(=O)CO` has what recorded concentration at 96 h?
0.5

* * *

# experimental_details: Plasma concentration in Wistar rat at 3 mg/kg administered as single dose through oral gavage after 24 hrs by LC-MS/MS analysis
# Assay type: ADME, organism-based
value_type: concentration at 24 h (ng/mL)
Response body: numeric value in ng/mL, unit text excluded.

Item `CCc1cc(-c2noc(-c3cc(C)c(CN(C)CC(C)C)s3)n2)cc(C)c1OC[C@@H](O)CNC(=O)CO` has what recorded concentration at 24 h?
25

* * *

# experimental_details: Plasma concentration in Wistar rat at 10 mg/kg administered as single dose through oral gavage after 24 hrs by LC-MS/MS analysis
# Format: ADME, organism-based
value_type: concentration at 24 h (ng/mL)
Response body: numeric value in ng/mL, unit text excluded.

CCc1cc(-c2noc(-c3cc(C)c(CN(C)CC(C)C)s3)n2)cc(C)c1OC[C@@H](O)CNC(=O)CO	92

Field: next compound
Item `CCc1cc(-c2noc(-c3cc(C)cc(CN(C)CC(C)C)c3)n2)cc(C)c1OC[C@@H](O)CNC(=O)CO` has what recorded concentration at 24 h?
342

* * *

# target_or_test_system: Sphingosine 1-phosphate receptor 1 (Homo sapiens)
# Sequence (P21453 whole entry): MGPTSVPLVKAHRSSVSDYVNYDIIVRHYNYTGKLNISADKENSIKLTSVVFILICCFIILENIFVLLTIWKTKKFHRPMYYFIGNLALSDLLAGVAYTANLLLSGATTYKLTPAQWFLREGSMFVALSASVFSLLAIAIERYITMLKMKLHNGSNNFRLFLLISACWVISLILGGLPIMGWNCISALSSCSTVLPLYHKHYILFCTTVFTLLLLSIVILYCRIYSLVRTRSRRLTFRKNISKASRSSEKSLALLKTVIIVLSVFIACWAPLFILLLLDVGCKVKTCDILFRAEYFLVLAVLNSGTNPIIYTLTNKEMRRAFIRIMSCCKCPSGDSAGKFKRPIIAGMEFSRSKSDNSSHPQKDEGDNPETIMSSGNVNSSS
# experimental_details: Agonist activity at human recombinant S1PR1 expressed in CHO cell membranes assessed as [35S]GTPgammaS binding preincubated for 30 mins followed by [35S]GTPgammaS addition measured after 1 hr by topcount analysis
value_type: EC50 (nM)
Response body: numeric value in nM, unit text excluded.

See these solved cases before continuing.
CCc1cc(-c2noc(-c3ccc(CNC)s3)n2)cc(C)c1OC[C@@H](O)CNC(=O)CO	189
CCc1cc(-c2noc(-c3cc(C)cc(CNCC(C)C)c3)n2)cc(C)c1OC[C@@H](O)CNC(=O)CO	15
CCc1cc(-c2noc(-c3cc(C)c(CNCC(C)C)s3)n2)cc(C)c1OC[C@@H](O)CNC(=O)CO	20
CCc1cc(-c2noc(-c3ccc(CN(C)CC(C)C)c(C)c3)n2)cc(C)c1OC[C@@H](O)CNC(=O)CO	13
CCc1cc(-c2noc(-c3cc(C)nc(CN(CC)CC)c3)n2)cc(C)c1OC[C@@H](O)CNC(=O)CO	45
CCc1cc(-c2nc(-c3cc(C)c(OC[C@@H](O)CNC(=O)CO)c(CC)c3)no2)ccc1CN(CC)CC	1
CCc1cc(-c2noc(-c3ccc(CN(C)CC)c(C)c3)n2)cc(C)c1OC[C@@H](O)CNC(=O)CO	14

Field: next compound
Give Sphingosine 1-phosphate receptor 1 (Homo sapiens) EC50 for `CCc1cc(-c2noc(-c3cc(C)nc(CN(CC)CC)c3)n2)cc(C)c1OC[C@@H](O)CO`
110

* * *

# experimental_details: Total brain concentration in Wistar rat at 10 mg/kg administered as single dose through oral gavage after 24 hrs by LC-MS/MS analysis
# Assay type: ADME, organism-based
# test_conditions: read-out: Drug uptake
value_type: concentration at 24 h (ng/g)
Response body: numeric value in ng/g, unit text excluded.

Item `CCc1cc(-c2noc(-c3cc(C)c(CN(C)CC(C)C)s3)n2)cc(C)c1OC[C@@H](O)CNC(=O)CO` has what recorded concentration at 24 h?
776

* * *

# experimental_details: Plasma concentration in Wistar rat at 10 mg/kg administered as single dose through oral gavage after 6 hrs by LC-MS/MS analysis
# Type: ADME, organism-based
value_type: concentration at 6 h (ng/mL)
Response body: numeric value in ng/mL, unit text excluded.

See these solved cases before continuing.
CCc1cc(-c2noc(-c3cc(C)c(CN(C)C)s3)n2)cc(C)c1OC[C@@H](O)CNC(=O)CO	31
CCc1cc(-c2noc(-c3cc(C)nc(CN(C)CC(C)C)c3)n2)cc(C)c1OC[C@@H](O)CNC(=O)CO	176
CCc1cc(-c2noc(-c3cc(C)cc(CN(C)CC(C)C)c3)n2)cc(C)c1OC[C@@H](O)CNC(=O)CO	1120

Field: next molecule
Item `CCc1cc(-c2noc(-c3cc(C)c(CN(C)CC(C)C)s3)n2)cc(C)c1OC[C@@H](O)CNC(=O)CO` has what recorded concentration at 6 h?
540

* * *

# fraction unbound at 6 h per entry
# experimental_details: Fraction unbound in Wistar rat plasma incubated for 6 hrs by LC-MS/MS based equilibrium dialysis method
# Assay type: ADME, cell-free
Please give the numeric answer without any surrounding text.

See these solved cases before continuing.
CCc1cc(-c2noc(-c3cc(C)c(CN(C)C)s3)n2)cc(C)c1OC[C@@H](O)CNC(=O)CO	0.012
CCc1cc(-c2noc(-c3cc(C)cc(CN(C)CC)c3)n2)cc(C)c1OC[C@@H](O)CNC(=O)CO	0.012
CCc1cc(-c2noc(-c3cc(C)cc(CN(C)C)c3)n2)cc(C)c1OC[C@@H](O)CNC(=O)CO	0.029
CCc1cc(-c2noc(-c3cc(C)nc(CN(C)CC(C)C)c3)n2)cc(C)c1OC[C@@H](O)CNC(=O)CO	0.004

Field: next compound
Item `CCc1cc(-c2nc(-c3cc(C)c(OC[C@@H](O)CNC(=O)CO)c(CC)c3)no2)ccc1CN(C)C` has what recorded fraction unbound at 6 h?
0.005

* * *

# experimental_details: Total brain concentration in Wistar rat at 10 mg/kg administered as single dose through oral gavage after 2 hrs by LC-MS/MS analysis
# Format: ADME, organism-based
# test_conditions: read-out: Drug uptake
value_type: concentration at 2 h (ng/g)
Response body: numeric value in ng/g, unit text excluded.

Item `CCc1cc(-c2noc(-c3cc(C)c(CN(C)CC(C)C)s3)n2)cc(C)c1OC[C@@H](O)CNC(=O)CO` has what recorded concentration at 2 h?
522

* * *

# experimental_details: Plasma concentration in Wistar rat at 10 mg/kg administered as single dose through oral gavage after 3 hrs by LC-MS/MS analysis
# Assay type: ADME, organism-based
# concentration at 3 h per entry
Response body: numeric value in ng/mL, unit text excluded.

See these solved cases before continuing.
CCc1cc(-c2noc(-c3cc(C)cc(CN(C)CC(C)C)c3)n2)cc(C)c1OC[C@@H](O)CNC(=O)CO	1380
CCc1cc(-c2noc(-c3cc(C)nc(CN(C)CC(C)C)c3)n2)cc(C)c1OC[C@@H](O)CNC(=O)CO	385
CCc1cc(-c2noc(-c3cc(C)c(CN(C)CC(C)C)s3)n2)cc(C)c1OC[C@@H](O)CNC(=O)CO	722

Field: next compound
Item `CCc1cc(-c2noc(-c3cc(C)c(CN(C)C)s3)n2)cc(C)c1OC[C@@H](O)CNC(=O)CO` has what recorded concentration at 3 h?
106

* * *

# experimental_details: Ratio of total drug level in brain to plasma in Wistar rat at 10 mg/kg administered as single dose through oral gavage after 6 hrs
# Type: ADME, organism-based
# test_conditions: read-out: BPR
value_type: Kp at 6 h

Item `CCc1cc(-c2noc(-c3cc(C)c(CN(C)CC(C)C)s3)n2)cc(C)c1OC[C@@H](O)CNC(=O)CO` has what recorded Kp at 6 h?
1.69

The reported measurements were obtained from ChEMBL document CHEMBL3797028.
